# Tested on: Enterobacter (Cephalosporinase +)
# assay.protocol: In vitro activity (geometric mean MIC, serial dilution)
# Assay type: cell-based
# conditions: 7 strains, Mueller-Hinton agar, inoculum 10^4 dilution, MIC cutoff 200 mcg./ml.
Measured MIC values are reported for all entries that follow.
measured.metric: MIC (µg/mL)

# compound, measured.metric, recorded.result
records = [
    ("NCc1ccsc1CC(=O)N[C@@H]1C(=O)N2C(C(=O)O)=C(CSc3ccc4nn(CC(=O)O)c(=O)n4n3)CS[C@H]12 [BB-S483]", "MIC", 5.2),
    ("CNCc1ccccc1CC(=O)N[C@@H]1C(=O)N2C(C(=O)O)=C(CSc3ccc4nn(CC(=O)O)c(=O)n4n3)CS[C@H]12 [BB-S479]", "MIC", 2.1),
    ("CNCc1ccsc1CC(=O)N[C@@H]1C(=O)N2C(C(=O)O)=C(CSc3ccc4nn(CC(=O)O)c(=O)n4n3)CS[C@H]12 [BB-S472]", "MIC", 3.2),
    ("Cn1nnnc1SCC1=C(C(=O)O)N2C(=O)[C@@H](NC(=O)[C@H](O)c3ccccc3)[C@H]2SC1 [Cefamandole, reference compound]", "MIC", 4.7),
]

====

# Test system: Enterobacter (Cephalosporinase +)
# assay.protocol: In vitro activity (geometric mean MIC, serial dilution)
# Format: cell-based
# conditions: 7 strains, Mueller-Hinton agar, inoculum 10^4 dilution, MIC cutoff 200 mcg./ml.

# compound, tested.system, MIC
records = [
    ("CNCc1cc(O)ccc1CC(=O)N[C@@H]1C(=O)N2C(C(=O)O)=C(CSc3ccc4nn(CC(=O)O)c(=O)n4n3)CS[C@H]12", "Enterobacter (Cephalosporinase +)", "2.6 µg/mL"),
    ("NCc1ccccc1CC(=O)N[C@@H]1C(=O)N2C(C(=O)O)=C(CSc3nnnn3CC(=O)O)CS[C@H]12 [BL-S786, reference compound]", "Enterobacter (Cephalosporinase +)", "7.7 µg/mL"),
    ("NCc1ccccc1CC(=O)N[C@@H]1C(=O)N2C(C(=O)O)=C(CSc3ccc4nn(CC(=O)O)c(=O)n4n3)CS[C@H]12", "Enterobacter (Cephalosporinase +)", "4.7 µg/mL"),
]

====

# Test system: E. coli (sensitive)
# assay.protocol: In vitro activity (geometric mean MIC, serial dilution)
# Format: cell-based
# conditions: Escherichia coli, read-out: Geometric Mean MIC
measured.metric: MIC

# compound, recorded.result
measured = [
    ("NCc1ccccc1CC(=O)N[C@@H]1C(=O)N2C(C(=O)O)=C(CSc3nnnn3CC(=O)O)CS[C@H]12 [BL-S786, reference compound]", "0.4 µg/mL"),
    ("NCc1ccccc1CC(=O)N[C@@H]1C(=O)N2C(C(=O)O)=C(CSc3ccc4nn(CC(=O)O)c(=O)n4n3)CS[C@H]12 [BB-S469]", "0.3 µg/mL"),
    ("NCc1ccsc1CC(=O)N[C@@H]1C(=O)N2C(C(=O)O)=C(CSc3ccc4nn(CC(=O)O)c(=O)n4n3)CS[C@H]12 [BB-S483]", "0.3 µg/mL"),
    ("Cn1nnnc1SCC1=C(C(=O)O)N2C(=O)[C@@H](NC(=O)[C@H](O)c3ccccc3)[C@H]2SC1 [Cefamandole, reference compound]", "0.3 µg/mL"),
]

====

Measured MIC values are reported for all entries that follow.
# Test system: Providencia sp.
# assay.protocol: In vitro activity (geometric mean MIC, serial dilution)
# Type: cell-based
# conditions: 5 strains, Mueller-Hinton agar, inoculum 10^4 dilution, MIC cutoff 200 mcg./ml., read-out: Geometric Mean MIC
measured.metric: MIC

# molecule, recorded.result
data = [
    ("CNCc1ccccc1CC(=O)N[C@@H]1C(=O)N2C(C(=O)O)=C(CSc3ccc4nn(CC(=O)O)c(=O)n4n3)CS[C@H]12", "4.2 µg/mL"),
    ("NCc1ccccc1CC(=O)N[C@@H]1C(=O)N2C(C(=O)O)=C(CSc3ccc4nn(CC(=O)O)c(=O)n4n3)CS[C@H]12", "4.2 µg/mL"),
    ("NCc1ccccc1CC(=O)N[C@@H]1C(=O)N2C(C(=O)O)=C(CSc3nnnn3CC(=O)O)CS[C@H]12 [BL-S786, reference compound]", "1.4 µg/mL"),
    ("CNCc1cc(O)ccc1CC(=O)N[C@@H]1C(=O)N2C(C(=O)O)=C(CSc3ccc4nn(CC(=O)O)c(=O)n4n3)CS[C@H]12", "4.8 µg/mL"),
    ("CNCc1ccsc1CC(=O)N[C@@H]1C(=O)N2C(C(=O)O)=C(CSc3ccc4nn(CC(=O)O)c(=O)n4n3)CS[C@H]12", "4.8 µg/mL"),
    ("NCc1ccsc1CC(=O)N[C@@H]1C(=O)N2C(C(=O)O)=C(CSc3ccc4nn(CC(=O)O)c(=O)n4n3)CS[C@H]12", "2.1 µg/mL"),
]

Hey, just so you know, these numbers are from patent US4198506A.
